System: Protein kinase C theta type (Homo sapiens) | Read-out: Ki | Origin: multiple publications

compound=Cc1cc(-c2n[nH]c3ncccc23)nc(N2CCC(N)CC2)c1 measurement_label=Ki assay_result="< 500 nM"
compound=CNC1CCN(c2ccc(C(F)(F)F)c(-c3n[nH]c4ncccc34)n2)CC1 measurement_label=Ki assay_result="> 700 nM"
compound="CC(C)CC1(C)CN(c2cccc(-c3n[nH]c4ncccc34)n2)CCC1N (centres unmarked)" measurement_label=Ki assay_result="< 50 nM"
compound=CC(C)C[C@@H](N)COc1ccc(C(F)(F)F)c(-c2n[nH]c3ncccc23)n1 measurement_label=Ki assay_result="> 700 nM"

What Ki value was documented for this compound, O=c1[nH]c2cnc(NCC3CCNCC3)nc2n1Cc1ccccc1C(F)(F)F ? < 1000 nM

What Ki value was documented for this compound, CCC1CN(c2ccc(F)c(-c3n[nH]c4ncccc34)n2)CCC1C#N (centres unmarked) ? < 50 nM

What Ki value was documented for this compound, CC(C)C[C@@H]1CN(c2nc(-c3n[nH]c4ncccc34)c(C#N)cc2F)CCN1 ? < 2800 nM

What Ki value was documented for this compound, Fc1ccc(CNc2ncc3c(n2)C(C[C@@H]2CCCNC2)C(c2c(F)cccc2Cl)=N3)cc1 (some centres unmarked) ? < 1000 nM

What Ki value was documented for this compound, COC(C)(C)C1CN(c2ccc(F)c(-c3n[nH]c4ncccc34)n2)CCN1 (centres unmarked) ? < 500 nM

What Ki value was documented for this compound, Fc1ccc(Cl)cc1CNc1ncc2nc(-c3c(Cl)cccc3Cl)n(CC3CCNC3)c2n1 (centres unmarked) ? < 1000 nM

What Ki value was documented for this compound, CC(C)CC1CN(c2ccc(C(F)(F)F)c(-c3n[nH]c4ncccc34)n2)CCC1CC#N (centres unmarked) ? < 500 nM

What Ki value was documented for this compound, CC(C)(C)C[C@H]1CN(c2ccc(C(F)(F)F)c(-c3n[nH]c4ncccc34)n2)CCN1 ? < 50 nM

What Ki value was documented for this compound, CC(C)CC1(O)CN(c2ccc(F)c(-c3n[nH]c4ncccc34)n2)CCC1C#N (centres unmarked) ? < 50 nM

What Ki value was documented for this compound, CC(C)CC1CN(c2ccc(C(F)(F)F)c(-c3n[nH]c4ncccc34)n2)CCC1CCN (centres unmarked) ? < 500 nM

What Ki value was documented for this compound, Nc1ncccc1C(=O)c1nc(OCC2(N)CCCC2)ccc1C(F)(F)F ? 500 to 2800 nM

What Ki value was documented for this compound, CC(C)(C(N)C1CCCN(c2ccc(F)c(-c3n[nH]c4ncccc34)n2)C1)C(F)(F)F (centres unmarked) ? < 500 nM

What Ki value was documented for this compound, CN1CCCN(c2cccc(-c3n[nH]c4ncccc34)n2)CC1 ? < 500 nM
